Numbers sourced from patent US20130030172A1.

Biological target: c-Met (Homo sapiens)
Sequence (P08581 25-1390): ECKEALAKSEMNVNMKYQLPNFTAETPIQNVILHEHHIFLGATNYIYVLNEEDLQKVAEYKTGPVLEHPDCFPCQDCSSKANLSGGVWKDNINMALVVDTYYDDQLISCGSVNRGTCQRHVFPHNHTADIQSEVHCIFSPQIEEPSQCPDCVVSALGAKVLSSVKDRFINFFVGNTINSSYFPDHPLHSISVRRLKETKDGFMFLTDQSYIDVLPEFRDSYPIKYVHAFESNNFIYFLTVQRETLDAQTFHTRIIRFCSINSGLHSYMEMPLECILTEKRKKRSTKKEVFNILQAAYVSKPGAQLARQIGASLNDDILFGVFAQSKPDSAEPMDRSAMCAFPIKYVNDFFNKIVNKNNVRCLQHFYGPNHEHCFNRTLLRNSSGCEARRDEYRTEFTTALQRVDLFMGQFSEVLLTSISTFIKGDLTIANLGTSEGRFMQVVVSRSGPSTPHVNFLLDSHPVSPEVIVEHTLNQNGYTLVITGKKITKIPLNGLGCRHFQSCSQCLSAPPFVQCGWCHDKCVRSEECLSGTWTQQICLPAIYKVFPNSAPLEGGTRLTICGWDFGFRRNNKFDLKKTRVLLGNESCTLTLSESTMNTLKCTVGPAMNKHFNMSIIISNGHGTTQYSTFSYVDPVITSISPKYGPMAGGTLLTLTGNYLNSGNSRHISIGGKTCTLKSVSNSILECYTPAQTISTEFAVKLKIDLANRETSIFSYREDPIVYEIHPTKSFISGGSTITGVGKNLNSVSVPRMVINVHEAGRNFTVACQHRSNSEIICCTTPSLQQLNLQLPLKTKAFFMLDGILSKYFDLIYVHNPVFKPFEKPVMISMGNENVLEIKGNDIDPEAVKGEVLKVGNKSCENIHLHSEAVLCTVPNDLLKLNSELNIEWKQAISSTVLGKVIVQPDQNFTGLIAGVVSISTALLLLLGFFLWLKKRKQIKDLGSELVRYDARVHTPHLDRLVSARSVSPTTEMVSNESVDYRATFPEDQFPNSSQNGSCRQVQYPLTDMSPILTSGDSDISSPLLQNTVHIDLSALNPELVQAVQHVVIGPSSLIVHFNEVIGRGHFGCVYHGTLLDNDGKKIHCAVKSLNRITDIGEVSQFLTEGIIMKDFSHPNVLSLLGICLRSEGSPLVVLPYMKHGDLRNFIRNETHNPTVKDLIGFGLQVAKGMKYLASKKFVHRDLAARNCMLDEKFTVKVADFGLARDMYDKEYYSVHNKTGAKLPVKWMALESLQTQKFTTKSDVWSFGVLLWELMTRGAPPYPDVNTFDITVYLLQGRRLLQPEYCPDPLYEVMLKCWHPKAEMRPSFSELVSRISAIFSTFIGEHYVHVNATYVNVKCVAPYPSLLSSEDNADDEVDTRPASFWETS
pIC50: −log10 of the molar value.
assayReadout: pIC50

c-Met (Homo sapiens) / pIC50 / COc1cc2c(Oc3ccc(NC(=O)C(=O)NCCc4ccccc4)cc3F)ccnc2cc1OCCCN1CCOCC1 : value?
> 7.30
